- Tested on: HepG2
- EXPERIMENTAL PROTOCOL: Cytotoxicity against human HepG2 cells by MTT assay
- Assay type: functional, cell-based
pIC50: −log10 of the molar value.

COMPOUND SMILES: COc1cc(-c2cc(=O)c3cc(C(C)C)ccc3o2)cc(OC)c1OC
RELATIONAL OPERATOR: =
pIC50: 5.44
--
COMPOUND SMILES: O=c1cc(C2CCCCC2)oc2c1ccc1ccccc12
RELATIONAL OPERATOR: =
pIC50: 5.54
--
COMPOUND SMILES: COc1cccc(-c2cc(=O)c3cc(C(C)C)ccc3o2)c1
RELATIONAL OPERATOR: =
pIC50: 5.68
--
COMPOUND SMILES: COc1ccccc1-c1cc(=O)c2cc(C(C)C)ccc2o1
RELATIONAL OPERATOR: =
pIC50: 5.27
--
COMPOUND SMILES: O=c1cc(C2CCCC2)oc2c1ccc1ccccc12
RELATIONAL OPERATOR: =
pIC50: 5.21
--
COMPOUND SMILES: CC(C)c1ccc2oc(-c3ccc([N+](=O)[O-])cc3)cc(=O)c2c1
RELATIONAL OPERATOR: <
pIC50: 4.30
--
COMPOUND SMILES: CC(C)c1ccc2oc(C3CCCCC3)cc(=O)c2c1
RELATIONAL OPERATOR: =
pIC50: 4.74
--
COMPOUND SMILES: COc1cc(OC)cc(-c2cc(=O)c3cc(Cl)ccc3o2)c1
RELATIONAL OPERATOR: =
pIC50: 5.96
--
COMPOUND SMILES: CC(C)c1ccc2oc(-c3cccc([N+](=O)[O-])c3)cc(=O)c2c1
RELATIONAL OPERATOR: <
pIC50: 4.30
--
COMPOUND SMILES: O=c1cc(C2CCCCC2)oc2ccc(Cl)cc12
RELATIONAL OPERATOR: =
pIC50: 4.70
--
COMPOUND SMILES: O=c1cc(C2CCCC2)oc2ccc(Cl)cc12
RELATIONAL OPERATOR: =
pIC50: 4.87
--
COMPOUND SMILES: CC(C)c1ccc2oc(-c3ccccc3)cc(=O)c2c1
RELATIONAL OPERATOR: =
pIC50: 5.19
--
COMPOUND SMILES: COc1ccc(-c2cc(=O)c3cc(C(C)C)ccc3o2)cc1
RELATIONAL OPERATOR: =
pIC50: 5.00
--
COMPOUND SMILES: CC(C)c1ccc2oc(C3CCCC3)cc(=O)c2c1
RELATIONAL OPERATOR: =
pIC50: 5.07
